Test system: NCI-H460 lung
Assay Overview: NCI tumour cell line growth inhibition, 48 h
Measured TGI of individual entries

Solved cases below.
{"Molecule": "CSc1c(C)n([O-])c2cc(Cl)c(Cl)cc2[n+]1=O", "Result Type": "TGI", "Meas Value": "> 100 µM"}
{"Molecule": "COc1cc2nc(-c3cccs3)nc(N3C(c4cc(OC)c(OC)c(OC)c4)=NNC(=O)c4ccccc43)c2cc1OC", "Result Type": "TGI", "Meas Value": "> 100 µM"}
{"Molecule": "C#C[C@@H](CCCC)OC(=O)N[C@H](C)c1ccccc1", "Result Type": "TGI", "Meas Value": "> 100 µM"}
{"Molecule": "C[C@H]1CCC2C(OC(=O)[C@@H]2CN(C)C)[C@]2(C)C(=O)C=CC12O (stereo partly specified)", "Result Type": "TGI", "Meas Value": "28.7 µM"}

Data request, read-out TGI, for CC1=NN2CCC(=O)N=C2S1
> 100 µM

Data request, read-out TGI, for O=C1CC2OCC=C3CN4CCC5(C(=O)O)C(N1)C2C3CC45 (stereo unspecified)
> 100 µM

Data request, read-out TGI, for O=[N+]([O-])c1ccc(Nc2cccc3c2[nH]c2c(-c4ccccc4)nccc23)c([N+](=O)[O-])c1
> 100 µM

Data request, read-out TGI, for Nc1c(C(=O)O)nnc2cc(Cl)ccc12
> 100 µM

Data request, read-out TGI, for O=C(NNc1nc(-c2ccccc2)cs1)Nc1ccccc1
50.6 µM

Data request, read-out TGI, for Cc1cc(O)c(C(C)C)cc1C(=S)Nc1ccc(Cl)cc1
27.4 µM

Data request, read-out TGI, for CCOC(=O)N(O)c1ccc(/C=C/c2ccccc2)cc1
15.6 µM

====

Test system: NCI-H522 lung
Assay Overview: NCI tumour cell line growth inhibition, 48 h
Measured TGI of individual entries
// note: answer is a bare numeric in µM

Solved cases below.
{"Compound": "OCC(S)CS.[Bi] (stereo unspecified)", "TGI [µM]": 12.9}
{"Compound": "CCN1CCC(O)(/C=C/c2ccccc2)C(C(=O)/C=C/c2ccccc2)C1 (stereo unspecified)", "TGI [µM]": 3.36}
{"Compound": "CC1=NN(c2nc(N)nc(-c3cc4ccccc4oc3=N)n2)C(C)(C)C1", "TGI [µM]": 39.9}

Data request, read-out TGI, for CSc1nc2ccc(C)cc2cc1/C=C1/C=C(c2ccccc2)NC1=O
42.5

Data request, read-out TGI, for C=C1CC(O)C2C(=C)C(=O)OC2C2C(C)C(=O)CC12 (stereo unspecified)
19.9

Data request, read-out TGI, for COc1cc([C@@H]2c3cc4c(cc3[C@@H](NCc3cccc(F)c3)C3COC(=O)[C@@H]32)OCO4)cc(OC)c1O (stereo partly specified)
19.4

====

Test system: BT-549 breast
Assay Overview: NCI tumour cell line growth inhibition, 48 h
Measured TGI of individual entries

{"Compound": "Cc1ccc(C(=O)N/N=C(\\N=Nc2ccccc2C(=O)O)c2ccc(N(C)C)cc2)cc1", "TGI": "> 100 µM"}

Under BT-549 breast: TGI value of NS(=O)(=O)c1ccc(NCc2nc3ccccc3[nH]2)cc1 ?
> 100 µM

Under BT-549 breast: TGI value of C=C(Cl)CN1c2ccccc2C=Cc2ccccc21 ?
> 100 µM

Under BT-549 breast: TGI value of CC(C)(CO)CNc1cc(Cl)nc(N)n1 ?
> 100 µM

Under BT-549 breast: TGI value of CCN(CCC#N)C(=O)Nc1ccccc1 ?
> 100 µM

Under BT-549 breast: TGI value of Cc1c2ccccc2c(C)n2c1nc1cc(Cl)c(Cl)cc12 ?
> 100 µM

Under BT-549 breast: TGI value of CC(C)(C)OC(=O)NNCC(O)COc1ccccc1 (stereo unspecified) ?
> 100 µM

Under BT-549 breast: TGI value of N#Cc1cc2c(cc1Cl)SC(=Nc1ccccc1)N(S(=O)(=O)c1ccc(Br)s1)S2(=O)=O ?
32.2 µM

Under BT-549 breast: TGI value of CC1CN=C(c2ccc(CN3CCC(CCCC4CCN(Cc5ccc(C6=NCC(C)N6)cc5)CC4)CC3)cc2)N1 (stereo unspecified) ?
> 100 µM

Under BT-549 breast: TGI value of O=C1C(OC(=O)c2ccccc2)=C(c2ccc(O)cc2)C(=O)C(OC(=O)c2ccccc2)=C1c1ccc(O)cc1 ?
> 100 µM

Under BT-549 breast: TGI value of Cc1nccn1S(=O)(=O)c1ccc(Cl)cc1 ?
> 100 µM

====

Tested on: HCT-15 colon
Assay Overview: NCI tumour cell line growth inhibition, 48 h
Result Type: TGI

Solved cases below.
{"Compound": "CC[C@@H](C(=O)[C@@H](C)[C@@H](O)[C@H](C)[C@@H]1O[C@@H]([C@@H](CC)C(=O)O)CC[C@@H]1C)[C@H]1O[C@]2(C=C[C@@H](O)[C@]3(CC[C@@](C)([C@H]4CC[C@](O)(CC)[C@H](C)O4)O3)O2)[C@H](C)C[C@@H]1C", "Meas Value": "> 100 µM"}
{"Compound": "COC(=O)C(C)Oc1ccc(O)cc1 (centres undefined)", "Meas Value": "> 100 µM"}

Data request, read-out TGI, for CC(C)OP(=O)(OC(C)C)/C(C#N)=C/c1c[nH]c2ccccc12
> 100 µM

Data request, read-out TGI, for Cc1ccsc1/C=N/Nc1cc(C)c2ccccc2n1
28.2 µM

====

System: TK-10 renal
Assay Overview: NCI tumour cell line growth inhibition, 48 h
Where a SMILES comes first, the peptide text is derived from it. [ ]: non-standard residue; d: D form.
Result Type: TGI

{"Compound": "COC(=O)[C@@H](C)C[C@H](Cc1ccccc1)NC(=O)c1csc([C@@H](C[C@H](C(C)C)N(C)C(=O)[C@@H](NC(=O)[C@H]2CCCCN2C)C(C(F)(F)F)C(F)(F)F)OC(C)=O)n1", "TGI": "> 16.7 µM"}
{"Compound": "Cc1nc2sc(C(=O)Nc3ccccc3)c(N)c2cc1C(=O)c1ccccc1", "TGI": "> 50 µM"}
{"Compound": "CN(C)CCOc1ccc2c(c1)C(=O)/C(=C\\c1ncc([N+](=O)[O-])n1C)C2", "TGI": "4.8 µM"}
{"Compound": "COc1ccc(/C=C(/c2ccc(OC)cc2)c2c(Cl)cc(Cl)c(/C(=C\\c3ccc(OC)cc3)c3ccc(OC)cc3)c2N=Nc2ccccc2)cc1", "TGI": "> 100 µM"}
{"Compound": "CC/C(C)=C1\\CCC(CN(C)C)C1=O (stereo not given)", "TGI": "31.1 µM"}
{"Compound": "CCOP(=O)(Cc1nc(C#N)c(N)o1)OCC", "TGI": "> 100 µM"}
{"Compound": "CCOC(=O)C1CCCN1C(=O)c1ccccc1Cl (stereo not given)", "TGI": "> 100 µM"}
{"Compound": "CSCC[C@H](NC(=O)[C@@H](N)CC(N)=O)C(=O)N[C@@H](Cc1c[nH]c2ccccc12)C(=O)N[C@@H](CCC(N)=O)C(=O)N[C@@H](CCC(=O)O)C(=O)N[C@H](C(=O)NCC(=O)N[C@@H](CCCCN)C(=O)N[C@H](C)C(=O)O)C(C)C (H-NMWQEVGK[dA]-OH)", "TGI": "> 100 µM"}
{"Compound": "CCOC(=O)CCC(NC(=O)c1ccc(Nc2nc3ccccc3nc2C(=O)OCC)s1)C(=O)OCC (stereo not given)", "TGI": "> 100 µM"}
{"Compound": "CN(C)C(=S)/N=c1\\ss/c(=N\\S(=O)(=O)c2ccccc2)n1C", "TGI": "> 100 µM"}

Data request, read-out TGI, for CNC(=O)C1OC(n2cnc3c(NCc4cccc(I)c4)nc(Cl)nc32)C(O)C1O (stereo not given)
29.8 µM

====

Tested on: NCI-H460 lung
Assay Overview: NCI tumour cell line growth inhibition, 48 h
Result Type: TGI

Solved cases below.
{"Compound": "CC(=O)c1c(O)cc(O)c(-c2c(C)cc(O)c3c2C(=O)c2cccc(O)c2C3=O)c1O", "Meas Value": "31.7 µM"}
{"Compound": "c1ccc(OCc2nnc(CCCCCCCCc3nnc(COc4ccccc4)o3)o2)cc1", "Meas Value": "> 100 µM"}
{"Compound": "CC(C)c1cc(C(C)C)c(B(c2ccccc2)c2ccccc2)c(C(C)C)c1B(c1ccccc1)c1ccccc1", "Meas Value": "> 100 µM"}
{"Compound": "CCOc1ccccc1N=Cc1c2ccccc2cc2ccccc12", "Meas Value": "> 100 µM"}
{"Compound": "CCCCOc1ccc(S(=O)(=O)/N=C(\\NO)Nc2ccc(Cl)cc2)cc1", "Meas Value": "32.7 µM"}
{"Compound": "CC(CC(=O)Nc1ccc(NC(=O)CC(C)N=NC(N)=O)cc1)N=NC(N)=O (stereo unspecified)", "Meas Value": "> 100 µM"}

Please turn your attention to the following entry.
Data request, read-out TGI, for CCN(CCC#N)C(=O)Nc1ccccc1
> 100 µM
